Sourced from the supplement of paper PMC5919970

# System: TYKNU
# Experiment description: fractional viability relative to vehicle; higher = less growth inhibition
# Protocol conditions: 10uM; 72 h; genotype: DNM1L knockout (sgDNM1L #1)
In all, about 2,000 compounds were measured (“fractional viability relative to vehicle”: median about 0.91, lowest 2% from about 0.045 on). The list comes from a sample in which the lowest values are over-represented; it also holds close analogues and randomly drawn compounds.
Observed property: fractional viability
Give the figure by itself; no unit, no explanation.

Prompt: Consider the molecule shown here: O=C(Nc1c(Cl)cncc1Cl)c1ccc(OC(F)F)c(OCC2CC2)c1 What is its recorded fractional viability?
Completion: 0.921

Prompt: Note, next up: CC1(C)CC(=O)c2c(C(F)(F)F)nn(-c3ccc(C(N)=O)c(N[C@H]4CC[C@H](OC(=O)CN)CC4)c3)c2C1
Completion: 0.981

Prompt: Then O=C(N/N=C/c1ccc([N+](=O)[O-])o1)c1ccc(O)cc1 [Nifuroxazide] ?
Completion: 0.0463

Prompt: Also, CCCCNc1ncc2c(-c3ccc(CN4CCN(C)CC4)cc3)cn([C@H]3CC[C@H](O)CC3)c2n1 please.
Completion: 0.0773

Prompt: O=C(O)C(Cc1ccccc1[N+](=O)[O-])=NNc1nc(-c2ccc(Cl)c(Cl)c2)cs1 (mixture of isomers) , same question.
Completion: 0.717

Prompt: Another molecule to check: CNC(=O)c1cccc(-c2ccc3c(N4CCOC[C@@H]4C)nc(N4CCOC[C@@H]4C)nc3n2)c1
Completion: 0.201

Prompt: What about this molecule? CCOC(=O)c1ccc(N2NC(=O)C(=Cc3ccc([N+](=O)[O-])o3)C2=O)cc1
Completion: 0.872

Prompt: Same for NC(=O)N/N=C/c1ccc([N+](=O)[O-])o1
Completion: 1.26

###

# Tested on: TYKNU
# Experiment description: fractional viability relative to vehicle; TYKNU is a high-grade serous ovarian cancer line; higher = less growth inhibition
# Protocol conditions: 2uM; 72 h; genotype: sgCTRLA1 (non-targeting control)
Over roughly 2,000 compounds, “fractional viability relative to vehicle” has its median near 0.91; the lowest 2% begin near 0.045. What follows is part of a selection rich in the lowest values, with near analogues and random picks from the rest.
Record form. Attribute: fractional viability. Fill in for each entry.
// return a plain number; no unit text

Prompt: Fill in: fractional viability of NNC(=O)c1ccncc1 is ___
Completion: 1.14

Prompt: Cool, now CCN(CC)CCN(Cc1ccc(-c2ccc(C(F)(F)F)cc2)cc1)C(=O)Cn1c(SCc2ccc(F)cc2)nc(=O)c2c1CCC2
Completion: 0.569

Prompt: And the next one, Oc1ccc(Cc2nc3c(Cc4ccccc4)nc(-c4ccc(O)cc4)cn3c2O)cc1 ?
Completion: 1.05

Prompt: Consider next the molecule Clc1cccc(-c2nnnn2Cc2cccnc2)c1Cl in the same way.
Completion: 0.927

Prompt: Another molecule to check: NC(=O)N/N=C/c1ccc([N+](=O)[O-])o1
Completion: 1.13

Prompt: Then Cn1c2ccccc2c2c3c(c4c5ccccc5n(CCC#N)c4c21)CNC3=O ?
Completion: 1.01

Prompt: Field entry: CC(CNC(=O)c1cccnc1)NC(=O)c1cccnc1 (configuration not stated)
Completion: 1.07

Prompt: Next up: COc1ccc2[nH]cc(/C=C3\C(=O)Nc4ccc(NC(=O)CCN5CCCCC5)cc43)c2c1
Completion: 0.929

Prompt: Now the same for CCOC(=O)c1ccc(N2NC(=O)C(=Cc3ccc([N+](=O)[O-])o3)C2=O)cc1
Completion: 1.26

Prompt: Same for Cc1cc(-c2ncc(CC(=O)Nc3ccc(-c4cnccn4)cn3)cc2C)ccn1
Completion: 1.1

Prompt: Try CCc1c(Cl)c(O)c(Cl)c(O)c1C(=O)O[C@H]1[C@H](O)[C@H](OC)[C@H](OC/C2=C\C=C\C[C@H](O)/C(C)=C/[C@H](CC)[C@@H](O[C@@H]3OC(C)(C)[C@@H](OC(=O)C(C)C)[C@H](O)[C@@H]3O)/C(C)=C/C(C)=C/C[C@@H]([C@@H](C)O)OC2=O)O[C@@H]1C next.
Completion: 0.893

Prompt: And what about the molecule CC(C)(C)C[C@@H]1N[C@@H](C(=O)N[C@H]2CC[C@H](O)CC2)[C@H](c2cccc(Cl)c2F)[C@]12C(=O)Nc1cc(Cl)ccc12 ?
Completion: 0.277

Prompt: Item: CCCS(=O)(=O)Nc1ccc(F)c(C(=O)c2c[nH]c3ncc(-c4ccc(Cl)cc4)cc23)c1F
Completion: 1.26

Prompt: Now consider OC(CN1CCN(c2cccc(Cl)c2)CC1)C(c1ccccc1)c1ccccc1 (configuration not stated) .
Completion: 1.02

Prompt: Next molecule: O=C(/C=C/c1ccc2ccccc2n1)c1ccncc1
Completion: 0.0683

Prompt: Next up: CN1C(C(=O)Nc2ccccn2)=C(O)c2sc(Cl)cc2S1(=O)=O
Completion: 1.22

Prompt: Also check Cc1ccc(S(=O)(=O)c2ccc([N+](=O)[O-])o2)cc1
Completion: 0.012
